- EXPERIMENTAL_SYSTEM: ETA (Oryctolagus cuniculus, UniProt A5A8K3)
- Construct: The cells used were rabbit renal artery vascular smooth muscle cells; endogenous in cells
- Sequence (A5A8K3 21-427): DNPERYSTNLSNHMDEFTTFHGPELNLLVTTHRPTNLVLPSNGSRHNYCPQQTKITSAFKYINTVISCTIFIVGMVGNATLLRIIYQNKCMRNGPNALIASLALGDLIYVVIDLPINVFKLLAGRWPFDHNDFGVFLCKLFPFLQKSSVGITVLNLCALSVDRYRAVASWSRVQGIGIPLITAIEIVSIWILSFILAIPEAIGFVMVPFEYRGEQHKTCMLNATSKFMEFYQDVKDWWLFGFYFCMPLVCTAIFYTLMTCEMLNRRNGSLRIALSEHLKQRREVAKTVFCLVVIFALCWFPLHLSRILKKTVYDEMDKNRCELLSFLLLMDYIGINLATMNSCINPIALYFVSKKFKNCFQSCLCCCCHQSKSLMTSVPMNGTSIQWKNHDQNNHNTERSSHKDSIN
- TEST_NAME: Endothelin Receptor Binding Assay-A (ETA), intact cell binding of [125I]-ET-1
- PARTICULARS: Table IIa; rabbit renal artery vascular smooth muscle cells; read-out: Binding Assay IC50 at Receptor Subtypes ETA
Numbered stars: 1 amine (or outer) side, 2 acyl side, 3 side chain; on linkers, the order of the positions; unused ones are H or OH. Square brackets hold non-standard residues; d marks the D form. Peptide text beside a SMILES is read from it. * marks the point of attachment. dDip = N[C@@H](C(=O)O)C(c1ccccc1)c1ccccc1; Acetyl(3-pyridyl) = O=C(Cc1cccnc1)*; CO = O=C([*:1])[*:2]; Propionyl = CCC(=O)*
Assignment: determine reported log10 IC50 for the given molecules.
Hey, these are logged values: log10 of IC50, µM being the unit before logging.

1) CC[C@H](C)[C@H](NC(=O)[C@H](CC(=O)O)NC(=O)[C@H](CC(C)C)NC(=O)[C@H](NC(C)=O)C(c1ccccc1)c1ccccc1)C(=O)N[C@H](C(=O)N[C@@H](Cc1c[nH]c2ccccc12)C(N)=O)[C@@H](C)CC [Example 24, Ac--D--Dip--Leu--Asp--Ile--Ile--Trp--NH2] (Ac-[dDip]LDIIW-NH2) : -0.49

Please supply log10 IC50 for each of the following items, keeping them in order.
1. CC[C@H](C)[C@H](NC(=O)[C@H](C)NC(=O)[C@H](CC(=O)O)NC(=O)[C@H](CC(C)C)NC(=O)[C@@H](Cc1ccccc1)NC(C)=O)C(=O)N[C@@H](Cc1c[nH]c2ccccc12)C(=O)O [Example 73, Ac--D--Phe--Leu--Asp--Ala--Ile--Trp] (Ac-[dF]LDAIW-OH)
2. CC[C@H](C)[C@H](NC(=O)[C@H](CC(=O)O)NC(=O)[C@H](CC(C)C)NC(=O)[C@H](NC(=O)NC)C(c1ccccc1)c1ccccc1)C(=O)N[C@H](C(=O)N[C@@H](Cc1c[nH]c2ccccc12)C(=O)O)[C@@H](C)CC [Example 37, Me(U) --D--Dip--Leu--Asp--Ile--Ile--Trp] ({NHMe-CO}-[dDip]LDIIW-OH)
3. CCC(=O)N[C@@H](C(=O)N[C@@H](CC(C)C)C(=O)N[C@@H](CC(=O)O)C(=O)N[C@H](C(=O)N[C@H](C(=O)N[C@@H](Cc1c[nH]c2ccccc12)C(=O)O)[C@@H](C)CC)[C@@H](C)CC)C(c1ccccc1)c1ccccc1 [Example 31, Et--D--Dip--Leu--Asp--Ile--Ile--Trp] (Propionyl-[dDip]LDIIW-OH)
4. CC[C@H](C)[C@H](NC(=O)[C@H](CC(=O)O)NC(=O)[C@H](CC(C)C)NC(=O)[C@H](NC(=O)Cc1cccnc1)C(c1ccccc1)c1ccccc1)C(=O)N[C@H](C(=O)N[C@@H](Cc1c[nH]c2ccccc12)C(=O)O)[C@@H](C)CC [Example 33, Pya--D--Dip--Leu--Asp--Ile--Ile--Trp] ({Acetyl(3-pyridyl)}-[dDip]LDIIW-OH)

1: 0.54; 2: 0.00; 3: 0.26; 4: 0.70

Per the records, this molecule ( CC[C@H](C)[C@H](NC(=O)[C@H](Cc1ccc(O)cc1)NC(=O)[C@H](N)C(c1ccccc1)c1ccccc1)C(=O)N[C@H](C(=O)N[C@@H](Cc1c[nH]c2ccccc12)C(=O)O)[C@@H](C)CC [Example 95, D--Dip--Tyr--Ile--Ile--Trp] (H-[dDip]YIIW-OH) ) has log10 IC50 equal to 0.90
